Would you kindly list pIC50 for each of these compounds?
Assay: Antiproliferative activity against human androgen-independent PC3MM2 cells after 72 hrs by MTS/PMS assay
Assay type: functional, cell-based
Conditions: PC3MM2, 72 h
pIC50: −log10 of the molar value.

Ask: Which pIC50 value is on record for `COc1cccc(-c2cc(C(=O)Nc3cc4ccc(OS(=O)(=O)c5ccc(C)cc5)c(C)c4oc3=O)ccc2OC)c1` ?
Result: < 4.00

Ask: Which pIC50 value is on record for COc1cccc(-c2cc(C(=O)Nc3cc4cc(OC)c(OC5OC(C)(C)[C@H](OC)[C@@H](O)[C@H]5O)c(C)c4oc3=O)ccc2OC)c1 (stereo partly drawn) ?
Result: < 4.00

Ask: Which pIC50 value is on record for `COc1cccc(-c2cc(C(=O)Nc3cc4ccc(OC(=O)N(C)C)c(C)c4oc3=O)ccc2OC)c1` ?
Result: < 4.00

The reported numbers originate from ChEMBL document CHEMBL1795208.
